- System: HL-60 cells
- PROTOCOL_DESCRIPTION: Cell viability resazurin assay, HL-60 cells
- Format: cell-based, human
- COND: 24 h incubation, 10 µM, ± SD
- Procedure: The A549 (human non-small cell lung cancer) cell line was obtained from the American Type Culture Collection (ATCC) and cultured in Dulbecco's Modified Eagle Medium (DMEM) with 10% fetal bovine serum (FBS), 2 mM L-Glutamine, 25 mM HEPES and penicillin/streptomycin solution (100 U/ml and 100 µg/ml, respectively). […] Firstly, resazurin salt powder was dissolved in sterile 1 × PBS. […] The effects of iron(II) complexes were calculated as the percentage of control fluorescence. […]
Rule: viability of HL-60 cells relative to control below 50% gives 1, anything at or above gives 0.

Solved entries:
CCOP(OCC)OCC.O=C1C=CC(=O)[N-]1.[C-]#[O+].[Fe+2].c1cc[cH-]c1 :: 0
O=C1C=CC(=O)[N-]1.[C-]#[O+].[C-]#[O+].[Fe+2].c1cc[cH-]c1 :: 1
O=C1C=CC(=O)[N-]1.[C-]#[O+].[Fe+2].c1cc[cH-]c1.c1ccc(P(c2ccccc2)c2ccccc2)cc1 :: 0

Now turn to the next molecule.
Please state whether viability of HL-60 cells relative to control is below 50% for "O=C1C=CC(=O)[N-]1.[C-]#[O+].[Fe+2].c1cc[cH-]c1.c1coc(P(c2ccco2)c2ccco2)c1"
0

====

- Test system: HL-60 cells
- PROTOCOL_DESCRIPTION: Cell viability resazurin assay, HL-60 cells
- Format: cell-based, human
- COND: 2 h incubation, 0.5 µM, ± SD
REPORTED_PROPERTY: viability of HL-60 cells relative to control (%)
State just the number; it will be interpreted in %.

Worked examples, 4 molecules total:
O=C1C=CC(=O)[N-]1.[C-]#[O+].[Fe+2].c1cc[cH-]c1.c1ccc(OP(Oc2ccccc2)Oc2ccccc2)cc1 [3b, CpFe(CO)(P(OPh)3)(η^1-N-maleimidato)] :: 108.58
O=C1C=CC(=O)[N-]1.[C-]#[O+].[Fe+2].c1cc[cH-]c1.c1ccc(P(c2ccccc2)c2ccccc2)cc1 [2a, CpFe(CO)(PPh3)(η^1-N-maleimidato)] :: 104.08
O=C1C=CC(=O)[N-]1.[C-]#[O+].[Fe+2].c1cc[cH-]c1.c1coc(P(c2ccco2)c2ccco2)c1 [2b, CpFe(CO)(P(Fu)3)(η^1-N-maleimidato)] :: 106.51
O=C1C=CC(=O)[N-]1.[C-]#[O+].[C-]#[O+].[Fe+2].c1cc[cH-]c1 [compound 1, CpFe(CO)2(η^1-N-maleimidato)] :: 101.68

Here is the next item to consider.
The reported viability of HL-60 cells relative to control of the molecule CCOP(OCC)OCC.O=C1C=CC(=O)[N-]1.[C-]#[O+].[Fe+2].c1cc[cH-]c1 [3a] was 103.48

====

- Tested on: A549 cells
- PROTOCOL_DESCRIPTION: Cell viability resazurin assay, A549 cells
- Type: cell-based, human
- COND: 2 h incubation, 0.5 µM, ± SD
- Method: The A549 (human non-small cell lung cancer) cell line was obtained from the American Type Culture Collection (ATCC) and cultured in Dulbecco's Modified Eagle Medium (DMEM) with 10% fetal bovine serum (FBS), 2 mM L-Glutamine, 25 mM HEPES and penicillin/streptomycin solution (100 U/ml and 100 µg/ml, respectively). […] Firstly, resazurin salt powder was dissolved in sterile 1 × PBS. […] The effects of iron(II) complexes were calculated as the percentage of control fluorescence. […]
REPORTED_PROPERTY: viability of A549 cells relative to control (%)
State just the number; it will be interpreted in %.

O=C1C=CC(=O)[N-]1.[C-]#[O+].[Fe+2].c1cc[cH-]c1.c1coc(P(c2ccco2)c2ccco2)c1 [2b, CpFe(CO)(P(Fu)3)(η^1-N-maleimidato)] :: 84.30
O=C1C=CC(=O)[N-]1.[C-]#[O+].[C-]#[O+].[Fe+2].c1cc[cH-]c1 [compound 1, CpFe(CO)2(η^1-N-maleimidato)] :: 93.79
CCOP(OCC)OCC.O=C1C=CC(=O)[N-]1.[C-]#[O+].[Fe+2].c1cc[cH-]c1 [3a] :: 100.11

The reported viability of A549 cells relative to control of the compound O=C1C=CC(=O)[N-]1.[C-]#[O+].[Fe+2].c1cc[cH-]c1.c1ccc(P(c2ccccc2)c2ccccc2)cc1 [2a, CpFe(CO)(PPh3)(η^1-N-maleimidato)] was 84.75

The reported viability of A549 cells relative to control of the compound O=C1C=CC(=O)[N-]1.[C-]#[O+].[Fe+2].c1cc[cH-]c1.c1ccc(OP(Oc2ccccc2)Oc2ccccc2)cc1 [3b, CpFe(CO)(P(OPh)3)(η^1-N-maleimidato)] was 94.42
